molecular target: SIRT1 (Homo sapiens, UniProt Q96EB6); test: TAMRA based mass spectrometry assay of SIRT1 activity; assay type: biochemical; settings: percent maximum fold activation of SIRT1; TAMRA peptide substrate; read-out: TAMRA % Fold Act
Collected Emax values appear next to each entry.

O=C(Nc1cnc2ccc(-c3ccccc3C(F)(F)F)nn12)c1cccnc1OCC(O)CO (stereo not shown) :: ≥ 350%
O=C(Nc1cnccn1)c1cnc2ccc(-c3cccc(Cl)c3F)nn12 :: < 350%
O=C(Nc1ccnc(CN2CCOCC2)n1)c1cnc2ccc(-c3ccccc3C(F)F)nn12 :: < 350%

Could you now consider this next compound?
Ask: Which value of Emax has been reported for O=C(Nc1cccc(CN2CCOCC2)n1)c1cnc2ccc(-c3c(F)cccc3F)nn12 in the records?
Result: ≥ 350%

###

Collected Emax values appear next to each entry.
Biological target: SIRT1 (Homo sapiens)
Sequence (Q96EB6 1-747): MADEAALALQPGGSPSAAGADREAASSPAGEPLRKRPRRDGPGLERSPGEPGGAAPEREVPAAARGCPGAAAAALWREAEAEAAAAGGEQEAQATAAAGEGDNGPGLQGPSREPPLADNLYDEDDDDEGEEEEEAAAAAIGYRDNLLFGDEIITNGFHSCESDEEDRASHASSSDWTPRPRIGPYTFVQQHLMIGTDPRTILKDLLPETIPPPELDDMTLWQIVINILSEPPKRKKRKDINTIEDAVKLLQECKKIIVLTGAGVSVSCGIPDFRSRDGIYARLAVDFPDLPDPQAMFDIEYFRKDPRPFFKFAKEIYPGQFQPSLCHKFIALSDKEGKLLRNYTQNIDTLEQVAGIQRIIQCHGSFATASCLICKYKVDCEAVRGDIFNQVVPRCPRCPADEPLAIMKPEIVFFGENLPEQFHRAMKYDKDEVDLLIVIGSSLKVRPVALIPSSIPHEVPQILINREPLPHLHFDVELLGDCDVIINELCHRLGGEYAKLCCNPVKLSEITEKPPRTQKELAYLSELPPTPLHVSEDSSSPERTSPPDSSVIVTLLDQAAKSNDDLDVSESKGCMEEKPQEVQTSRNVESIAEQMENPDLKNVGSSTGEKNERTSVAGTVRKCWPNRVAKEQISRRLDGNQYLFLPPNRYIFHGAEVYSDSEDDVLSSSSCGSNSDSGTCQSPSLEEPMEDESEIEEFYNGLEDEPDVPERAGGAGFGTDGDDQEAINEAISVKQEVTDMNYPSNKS
Assay: Trp mass spectrometry assay of SIRT1 activity
Assay type: biochemical
Conditions: Trp assay; percent maximum fold activation; read-out: Trp % Fold Act

Ask: Which value of Emax has been reported for O=C(Nc1nccc(OCC(F)(F)F)n1)c1cnc2ccc(-c3ccccc3C(F)(F)F)nn12 in the records?
Result: ≥ 350%

Ask: Which value of Emax has been reported for O=C(Nc1cccnn1)c1cnc2ccc(-c3cccc(OC[C@H](O)CO)c3)nn12 in the records?
Result: < 350%

Ask: Which value of Emax has been reported for Cc1ccnc(C(=O)Nc2cnc3ccc(-c4ccccc4C(F)(F)F)nn23)c1 in the records?
Result: < 350%

Ask: Which value of Emax has been reported for Cc1nc2ccc(-c3ccccc3Cl)nn2c1NC(=O)c1ccncn1 in the records?
Result: < 350%

Ask: Which value of Emax has been reported for CN(C)[C@H]1CCN(c2ccc3ncc(C(=O)Nc4cccnc4)n3n2)C1 in the records?
Result: < 350%

Ask: Which value of Emax has been reported for CC1CCN(c2ccc3ncc(C(=O)Nc4cncc(F)c4)n3n2)C1 (stereo not shown) in the records?
Result: ≥ 350%

Ask: Which value of Emax has been reported for Cc1cc(NC(=O)c2cnc3ccc(-c4ccccc4C(F)(F)F)nn23)nc(C)n1 in the records?
Result: < 350%

Ask: Which value of Emax has been reported for Cc1ccc(NC(=O)c2c(C)nc3ccc(-c4ccccc4C)nn23)nn1 in the records?
Result: < 350%

Ask: Which value of Emax has been reported for Cc1cc(-c2ccccc2C(F)(F)F)nn2c(C(=O)Nc3cccnc3)cnc12 in the records?
Result: ≥ 350%

###

target: SIRT1 (Homo sapiens, UniProt Q96EB6); assay: TAMRA based mass spectrometry assay of SIRT1 activity; format: biochemical; settings: TAMRA assay; concentration giving 150% activation of SIRT1
measurement.label: TAMRA EC1.5 (μM)

Example compounds with recorded TAMRA EC1.5 (μM):
O=C(Nc1cnn2ccc(-c3ccccc3C(F)(F)F)nc12)c1nc2c(s1)CCCC2 :: A (EC1.5<1 μM)
O=C(Nc1cnn2ccc(-c3ccccc3OC(F)(F)F)nc12)c1nccs1 :: B (EC1.5 1-25 μM)
Cc1nc2ccc(-c3ccccc3C(F)(F)F)nn2c1NC(=O)c1cccc(OCC(O)CO)n1 (centres unmarked) :: B (EC1.5 1-25 μM)
Cc1cnc(C(=O)Nc2cnn3ccc(-c4ccccc4OC(F)(F)F)nc23)s1 :: A (EC1.5<1 μM)
Cc1nc2ccc(-c3ccccc3C(F)(F)F)nn2c1C(=O)Nc1nccc(N2CCCC2)n1 :: A (EC1.5<1 μM)
O=C(Nc1cnn2ccc(-c3ccccc3C(F)(F)F)nc12)c1ncccc1F :: A (EC1.5<1 μM)

Ask: Which value of TAMRA EC1.5 (μM) has been reported for O=C(Nc1cnc2ccc(-c3ccccc3F)nn12)c1ccncn1 in the records?
Result: C (EC1.5>25 μM)

Ask: Which value of TAMRA EC1.5 (μM) has been reported for Cc1nc2ccc(-c3ccccc3Cl)nn2c1NC(=O)c1cnccn1 in the records?
Result: C (EC1.5>25 μM)

###

biological target: SIRT1 (Homo sapiens); experiment: TAMRA based mass spectrometry assay of SIRT1 activity; assay type: biochemical; conditions: percent maximum fold activation of SIRT1; TAMRA peptide substrate; read-out: TAMRA % Fold Act
Collected Emax values appear next to each entry.

Example molecules with recorded Emax:
O=C(Nc1cccc(CN2CCOCC2)n1)c1cnc2ccc(-c3ccccc3F)nn12 [Compound 135] :: ≥ 350%
Cc1ccc(NC(=O)c2cnc3ccc(-c4ccccc4C(F)(F)F)nn23)cn1 [Compound 98] :: ≥ 350%
O=C(Nc1ccccn1)c1cnc2ccc(-c3ccccc3F)nn12 [Compound 137] :: < 350%
Cc1cc(-c2ccccc2C(F)(F)F)nn2c(C(=O)Nc3cccc(N4CCOCC4)n3)cnc12 [Compound 192] :: ≥ 350%

Could you now consider this next molecule?
Ask: Which value of Emax has been reported for O=C(Nc1cccnc1)c1cnc2ccc(-c3c(F)cccc3Cl)nn12 [Compound 163] in the records?
Result: < 350%

###

target: SIRT1 (Homo sapiens, UniProt Q96EB6); assay: Trp mass spectrometry assay of SIRT1 activity; assay type: biochemical; details: Trp assay; concentration giving 150% activation of SIRT1
measurement.label: Trp EC1.5 (μM)

CN1CCN(c2ccc3ncc(C(=O)Nc4cccnc4)n3n2)CC1 [Compound 946] :: C (EC1.5>25 μM)
COc1cc(NC(=O)c2cnc3ccc(N4CC[C@H](F)C4)nn23)ncn1 [Compound 922] :: C (EC1.5>25 μM)
O=C(Nc1ncccn1)c1cnc2ccc(N3CC[C@H](F)C3)nn12 [Compound 854] :: B (EC1.5 1-25 μM)
Cc1nc2c(OC[C@H](O)CO)cc(-c3ccccc3C(F)(F)F)nn2c1C(=O)Nc1ccncc1F [Compound 843] :: A (EC1.5<1 μM)

Ask: Which value of Trp EC1.5 (μM) has been reported for N#Cc1ccccc1-c1ccc2ncc(NC(=O)c3cscn3)n2n1 [Compound 332] in the records?
Result: C (EC1.5>25 μM)

Ask: Which value of Trp EC1.5 (μM) has been reported for O=C(Nc1cccnc1)c1cnc2ccc(N3CC(F)(F)C3)nn12 [Compound 913] in the records?
Result: B (EC1.5 1-25 μM)

Ask: Which value of Trp EC1.5 (μM) has been reported for Cc1nc(C(=O)Nc2c(C)nc3ccc(-c4ccccc4Cl)nn23)c(C)s1 [Compound 352] in the records?
Result: C (EC1.5>25 μM)

Ask: Which value of Trp EC1.5 (μM) has been reported for Cc1ccncc1NC(=O)c1cnn2ccc(-c3ccccc3C(F)(F)F)nc12 [Compound 640] in the records?
Result: B (EC1.5 1-25 μM)

Ask: Which value of Trp EC1.5 (μM) has been reported for Cc1scnc1C(=O)Nc1cnn2ccc(-c3ccccc3C(F)(F)F)nc12 [Compound 803] in the records?
Result: C (EC1.5>25 μM)

Ask: Which value of Trp EC1.5 (μM) has been reported for Cc1nc2ccc(-c3ccccc3Cl)nn2c1NC(=O)c1ccccn1 [Compound 346] in the records?
Result: C (EC1.5>25 μM)

Ask: Which value of Trp EC1.5 (μM) has been reported for O=C(Nc1cnn2ccc(-c3ccccc3C(F)(F)F)nc12)c1cc(O)ncn1 [Compound 830] in the records?
Result: C (EC1.5>25 μM)

Ask: Which value of Trp EC1.5 (μM) has been reported for Cc1cc(NC(=O)c2cnn3ccc(-c4ccccc4OC(F)(F)F)nc23)nc(C)n1 [Compound 659] in the records?
Result: B (EC1.5 1-25 μM)
